target: F508delCFTR (Homo sapiens, UniProt P13569, DEL508-508); construct: expressed in transfected cells; host or cells: CFBE41o- human lung-derived epithelial cells (CFBE4lo-F508delCFTR-HRP), doxycycline-inducible; assay: Cell Surface Expression-Horse Radish Peroxidase (CSE-HRP) Assay; assay type: cell-based; details: test compound without co-corrector; maximum at any tested concentration, normalized to on-plate positive control; read-out: Maximum % activity (without co-corrector);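 further: percent of the 2 µM on-plate positive control corrector response above DMSO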
Sequence (P13569 with tags, fused parts or gaps DEL508-508): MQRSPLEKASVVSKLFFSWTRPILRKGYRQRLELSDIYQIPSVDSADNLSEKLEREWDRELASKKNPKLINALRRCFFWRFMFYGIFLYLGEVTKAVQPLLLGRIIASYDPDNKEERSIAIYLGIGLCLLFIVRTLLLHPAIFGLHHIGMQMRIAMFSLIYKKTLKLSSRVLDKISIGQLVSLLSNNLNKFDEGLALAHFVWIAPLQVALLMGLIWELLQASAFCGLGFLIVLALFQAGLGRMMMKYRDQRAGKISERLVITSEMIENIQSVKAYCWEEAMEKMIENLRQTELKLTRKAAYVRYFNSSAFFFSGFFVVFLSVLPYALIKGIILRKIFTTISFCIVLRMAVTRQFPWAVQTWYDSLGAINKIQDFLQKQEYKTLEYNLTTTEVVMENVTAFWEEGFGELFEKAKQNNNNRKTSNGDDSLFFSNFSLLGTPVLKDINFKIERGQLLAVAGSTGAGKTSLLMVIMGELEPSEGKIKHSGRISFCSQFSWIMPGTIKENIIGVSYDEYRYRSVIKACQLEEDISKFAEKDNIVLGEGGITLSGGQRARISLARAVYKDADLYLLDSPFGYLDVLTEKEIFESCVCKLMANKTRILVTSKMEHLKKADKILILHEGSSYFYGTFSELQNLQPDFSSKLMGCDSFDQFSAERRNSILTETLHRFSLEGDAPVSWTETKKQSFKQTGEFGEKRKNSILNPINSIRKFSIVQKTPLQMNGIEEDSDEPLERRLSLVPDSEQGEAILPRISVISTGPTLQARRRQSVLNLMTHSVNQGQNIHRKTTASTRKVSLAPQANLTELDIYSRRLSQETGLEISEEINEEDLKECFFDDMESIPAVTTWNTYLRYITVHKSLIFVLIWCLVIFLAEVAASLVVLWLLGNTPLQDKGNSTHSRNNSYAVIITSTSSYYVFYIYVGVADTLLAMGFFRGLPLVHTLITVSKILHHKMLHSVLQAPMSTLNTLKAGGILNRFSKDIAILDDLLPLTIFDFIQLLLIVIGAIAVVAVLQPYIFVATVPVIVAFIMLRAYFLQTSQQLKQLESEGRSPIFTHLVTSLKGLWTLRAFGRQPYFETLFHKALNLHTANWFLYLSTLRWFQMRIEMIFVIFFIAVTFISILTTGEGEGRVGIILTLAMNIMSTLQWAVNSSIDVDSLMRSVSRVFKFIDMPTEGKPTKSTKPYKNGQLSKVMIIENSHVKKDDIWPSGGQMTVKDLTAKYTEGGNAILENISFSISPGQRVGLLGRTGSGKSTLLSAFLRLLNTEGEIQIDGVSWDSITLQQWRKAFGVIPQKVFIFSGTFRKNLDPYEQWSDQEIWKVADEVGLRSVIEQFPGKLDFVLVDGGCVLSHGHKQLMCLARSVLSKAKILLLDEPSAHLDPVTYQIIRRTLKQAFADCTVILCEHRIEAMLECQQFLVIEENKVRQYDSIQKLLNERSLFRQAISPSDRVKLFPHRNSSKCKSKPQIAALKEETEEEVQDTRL
# key: entry, value: Emax

Examples with their reported Emax follow.
{"Molecule": "COc1ncc(Br)cc1CN[C@H]1[C@H](C(C)(C)C)[C@@H](C(=O)O)N(C(=O)[C@@H]2CCCO2)[C@H]1c1ccccc1C(C)C", "Emax": "> 200%"}
{"Molecule": "COc1ccc(C23CC(C2)C3)cc1CN[C@H]1[C@H](C(C)(C)C)[C@@H](C(=O)O)N(C(=O)C2CCCCC2)[C@H]1c1cccnc1N(C)C", "Emax": "> 200%"}
{"Molecule": "COc1ccc(C(C)(C)C)cc1CN[C@H]1[C@H](C(C)(C)C)[C@@H](C(=O)O)N(C(=O)C2CC23CCOCC3)[C@H]1c1ccccc1 (stereo partly drawn)", "Emax": "< 100%"}
{"Molecule": "CC(C)(C)[C@H]1[C@H](NCc2ccc(OC(F)(F)F)c(F)c2)[C@H](c2ccccc2)N(C(=O)C2CCCCC2)[C@@H]1C(=O)O", "Emax": "< 100%"}
{"Molecule": "COc1cc(C(F)(F)F)ccc1CN[C@H]1[C@H](C(C)(C)C)[C@@H](C(=O)O)N(C(=O)C2CCCC(F)(F)C2)[C@H]1c1ccccc1 (stereo partly drawn)", "Emax": "100 to 200%"}

Pending molecule:
[Q] Give reported Emax value for Cc1cc(C)c(C#N)c(N[C@H]2[C@H](C(C)(C)C)[C@@H](C(=O)O)N(C(=O)C3CCCCC3)[C@H]2c2ccccc2)n1
[A] < 100%
